Target: human cathepsin S (CatS) (Homo sapiens (Human))
Sequence (P25774 115-331): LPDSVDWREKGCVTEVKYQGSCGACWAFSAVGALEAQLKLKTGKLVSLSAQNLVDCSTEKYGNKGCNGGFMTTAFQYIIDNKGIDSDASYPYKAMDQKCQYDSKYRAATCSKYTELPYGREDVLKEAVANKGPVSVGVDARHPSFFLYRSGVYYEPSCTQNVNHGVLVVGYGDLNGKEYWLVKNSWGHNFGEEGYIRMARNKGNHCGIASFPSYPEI
Test: CatS functional enzyme assay
Format: biochemical
Details: ratio Ki(hCatS)/Ki(hCatK)
measurement-type: Selectivity Ki(hCatS)/Ki(hCatK)
Simply state the number, no unit and no words.

Value lookup for Selectivity Ki(hCatS)/Ki(hCatK); key = N#Cc1cncc(-c2ccc(C(=O)N[C@H](C(=O)N3C[C@H](Cl)[C@H]4OCC(=O)[C@H]43)C3CCCCC3)s2)c1 [Example 39] 11.8

Value lookup for Selectivity Ki(hCatS)/Ki(hCatK); key = O=C(N[C@H](C(=O)N1C[C@H](Cl)[C@H]2OCC(=O)[C@H]21)C1CCCCC1)c1ncc(-c2cnc(C(F)(F)F)nc2)s1 [Example 67] 4.7

Value lookup for Selectivity Ki(hCatS)/Ki(hCatK); key = O=C(N[C@H](C(=O)N1C[C@H](Cl)[C@H]2OCC(=O)[C@H]21)C1CCCCC1)c1ccc(-c2ccncc2)s1 [Example 3] 34.3

Value lookup for Selectivity Ki(hCatS)/Ki(hCatK); key = Cc1ncc(-c2ccc(C(=O)N[C@H](C(=O)N3C[C@H](Cl)[C@H]4OCC(=O)[C@H]43)C3CCCCC3)s2)c(C)n1 [Example 81] 12.1

Value lookup for Selectivity Ki(hCatS)/Ki(hCatK); key = O=C(N[C@H](C(=O)N1C[C@H](Cl)[C@H]2OCC(=O)[C@H]21)C1CCCCC1)c1ncc(-c2cnccn2)s1 [Example 48] 17.3

Value lookup for Selectivity Ki(hCatS)/Ki(hCatK); key = O=C(N[C@H](C(=O)N1C[C@H](Cl)[C@H]2OCC(=O)[C@H]21)C1CCCCC1)c1ncc(-c2cccnn2)s1 [Example 15] 7.7

Value lookup for Selectivity Ki(hCatS)/Ki(hCatK); key = O=C(N[C@H](C(=O)N1C[C@H](Cl)[C@H]2OCC(=O)[C@H]21)C1CCCCC1)c1ccc(-c2ccc(C3CC3)nc2)s1 [Example 63] 27.6

Value lookup for Selectivity Ki(hCatS)/Ki(hCatK); key = O=C(N[C@H](C(=O)N1C[C@H](Cl)[C@H]2OCC(=O)[C@H]21)C1CCCCC1)c1ccc(-c2ncncc2F)s1 [Example 36] 21.3

Value lookup for Selectivity Ki(hCatS)/Ki(hCatK); key = O=C(N[C@H](C(=O)N1C[C@H](Cl)[C@H]2OCC(=O)[C@H]21)C1CCCCC1)c1ncc(-c2cccnc2)s1 [Example 45] 32.8

Value lookup for Selectivity Ki(hCatS)/Ki(hCatK); key = Cc1cnnc(-c2ccc(C(=O)N[C@H](C(=O)N3C[C@H](Cl)[C@H]4OCC(=O)[C@H]43)C3CCCCC3)s2)c1 [Example 44] 4.7

Value lookup for Selectivity Ki(hCatS)/Ki(hCatK); key = Cc1ccc(-c2ccc(C(=O)N[C@H](C(=O)N3C[C@H](Cl)[C@H]4OCC(=O)[C@H]43)C3CCCCC3)s2)nn1 [Example 35] 10.7

Value lookup for Selectivity Ki(hCatS)/Ki(hCatK); key = O=C(N[C@H](C(=O)N1C[C@H](Cl)[C@H]2OCC(=O)[C@H]21)C1CCCCC1)c1ccc(-c2ncccn2)s1 [Example 9] 81.7

Hey, just so you know, these numbers are from patent US9725459B2.
